Taken from paper PMC9482650.

# systemTested: MAGI2_3, Q86UL8
# Sequence (Q86UL8 600-682): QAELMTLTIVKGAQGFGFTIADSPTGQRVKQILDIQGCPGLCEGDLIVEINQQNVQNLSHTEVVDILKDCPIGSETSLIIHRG
# assayExplanation: holdup assay
# Parameters: key: below the threshold = too weak to quantify, mostly under pKd 3.1 to 4
# cond: plain residues with an end cap or a label only (N-terminal biotin on a linker: ado-ado)
This section presents binders with their documented pKd values.
// keep it numeric: no unit symbol after the value

binder | pKd
FNSYSLTGYV [CLDN2, P57739] | 3.63
RRISSLESEV [GRIN2C, Q14957] | 4.11
QMNQTLPVQV [EPHB3, P54753] | 3.64

# next binder below
Find the recorded pKd belonging to SKENVQETQI [LRRC4B, Q9NT99] and report it.
3.63
